biological target: 20S proteasome β5 chymotrypsin-like activity (Suc-LLVY-AMC) (Homo sapiens, UniProt P20618+P28074); construct: Proteasomes were isolated from red blood cells; from tissue; host or cells: red blood cells; experiment: Protease assay, chymotrypsin-like activity of isolated 20S proteasomes (LLVY substrate); format: biochemical; details: isolated 20S proteasome; LLVY-MCA 50 μM; 15 min pre-incubation; read-out: IC50 β5 Chymotrypsin-like (Y)
Where a SMILES comes first, the peptide text is derived from it. [ ]: non-standard residue; d: D form. The star is where a group is joined. Leu(ol) = CC(C)C[C@H](N)CO; Cbz = O=C(OCc1ccccc1)*; OBn = c1ccc(CO*)cc1; OtBu = CC(C)(C)O*
// values below are reported IC50

{"compound": "CC(=O)N[C@@H](CC(C)C)C(=O)N[C@@H](CC(=O)OCc1ccccc1)C(=O)N[C@H](CO)CC(C)C [Compound 10] (Ac-Leu-Asp(OBn)-[Leu(ol)])", "result.unit": "nM", "limit.operator": ">", "IC50": 10000}
{"compound": "CC(C)C[C@H](NC(=O)OCc1ccccc1)C(=O)N[C@@H](CC(C)C)C(=O)N[C@@H](CC(C)C)C(O)C#Cc1ccccc1 (stereo partly drawn)", "result.unit": "nM", "limit.operator": "=", "IC50": 1300}
{"compound": "CC(C)C[C@@H](CO)NC(=O)[C@H](CC(=O)OC(C)(C)C)NC(=O)[C@H](CC(C)C)NC(=O)OCc1ccccc1 [Compound 8] (Cbz-Leu-Asp(OtBu)-[Leu(ol)])", "result.unit": "nM", "limit.operator": ">", "IC50": 10000}
{"compound": "CC(C)C[C@@H](C=O)NC(=O)[C@H](CC(=O)O)NC(=O)[C@H](CC(C)C)NC(=O)OCc1ccccc1 [Compound 16] (Cbz-Leu-Asp-Leu-aldehyde)", "result.unit": "nM", "limit.operator": "=", "IC50": 7260}
{"compound": "CC(C)C[C@@H](C=O)NC(=O)[C@H](CC(=O)OCc1ccccc1)NC(=O)[C@H](CC(C)C)NC(=O)OCc1ccccc1 [Compound 18] (Cbz-Leu-Asp(OBn)-Leu-aldehyde)", "result.unit": "nM", "limit.operator": "=", "IC50": 1730}
{"compound": "CC(C)CC(C=O)NC(=O)C(CC(=O)OC(C)(C)C)NC(=O)C(CC(C)C)NC(=O)OCc1ccccc1 (stereo not drawn) [Compound 15, Z-Leu-Asp(O^tBu)Leu-CHO] (Cbz-Leu-Asp(OtBu)-Leu-aldehyde; configuration not given here)", "result.unit": "nM", "limit.operator": "=", "IC50": 58}

###

// values below are reported IC50
target: 20S proteasome β1 caspase-like activity (LLE-MCA) (Homo sapiens, UniProt P28072+Q99436); construct: Proteasomes were isolated from red blood cells; experiment: Protease assay, caspase-like activity of isolated 20S proteasomes; conditions: isolated 20S proteasome; LLE-MCA 50 μM; 15 min pre-incubation; read-out: IC50 β1 Caspase-like (E)
Where a SMILES comes first, the peptide text is derived from it. The star is where a group is joined. Cbz = O=C(OCc1ccccc1)*; OBn = c1ccc(CO*)cc1; OtBu = CC(C)(C)O*
measure.name: IC50 (µM)

{"compound": "CC(C)C[C@@H](C=O)NC(=O)[C@H](CC(C)C)NC(=O)[C@H](CC(C)C)NC(=O)OCc1ccccc1 [Compound 3, reference compound] (Cbz-Leu-Leu-Leu-aldehyde)", "observed": 2.29}
{"compound": "CC(C)CC(C=O)NC(=O)C(CC(=O)OC(C)(C)C)NC(=O)C(CC(C)C)NC(=O)OCc1ccccc1 (stereo not drawn) [Compound 15, Z-Leu-Asp(O^tBu)Leu-CHO] (Cbz-Leu-Asp(OtBu)-Leu-aldehyde; configuration not given here)", "observed": 1.79}
{"compound": "CC(C)C[C@@H](C=O)NC(=O)[C@H](CC(=O)OCc1ccccc1)NC(=O)[C@H](CC(C)C)NC(=O)OCc1ccccc1 [Compound 18] (Cbz-Leu-Asp(OBn)-Leu-aldehyde)", "observed": 3.12}

Every entry's value here was drawn from patent US8835392B2.
